Test system: WHIM30 (cells of a triple-negative basal-like breast cancer xenograft);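 further: cells dissociated from PDX tumors propagated in female NSG mouse mammary fat pads, vehicle control 0.1% DMSO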
Assay: cell viability (% of vehicle); higher = less cytotoxic
Details: 1 µM; 72 h
Field: class. Source value: cell viability. Ranges: low value = under 60, medium value = from 60 up to 90, high value = 90 and over

compound: CC(C)(C)NC(=O)C1CC2CCCCC2CN1CC(O)C(Cc1ccccc1)NC(=O)C(CC(N)=O)NC(=O)c1ccc2ccccc2n1.CS(=O)(=O)O (centres undefined) [Saquinavir mesylate]
assignedLabel: high value
--
compound: Cc1nc(Nc2ncc(C(=O)Nc3c(C)cccc3Cl)s2)cc(N2CCN(CCO)CC2)n1
assignedLabel: low value
--
compound: Clc1ccc(COC(Cn2ccnc2)c2ccc(Cl)cc2Cl)c(Cl)c1.O=[N+]([O-])O (centres undefined) [Miconazole Nitrate]
assignedLabel: high value
--
compound: O=C(NC1CCN(CCCCC2(C(=O)NCC(F)(F)F)c3ccccc3-c3ccccc32)CC1)c1ccccc1-c1ccc(C(F)(F)F)cc1 [Lomitapide]
assignedLabel: medium value
--
compound: CC(Oc1cc(-c2cnn(C3CCNCC3)c2)cnc1N)c1c(Cl)ccc(F)c1Cl [(R)-Crizotinib]
assignedLabel: high value
--
compound: Nc1ccn(C2OC(CO)C(O)C2O)c(=O)n1 (centres undefined) [Cytarabine]
assignedLabel: medium value
--
compound: CC(C)CC(NC(=O)CNC(=O)c1cc(Cl)ccc1Cl)B(O)O (centres undefined)
assignedLabel: low value
--
compound: COc1ncc(-c2ccc3nccc(-c4ccnnc4)c3c2)cc1NS(=O)(=O)c1ccc(F)cc1F
assignedLabel: low value
--
compound: CC(C)CC(NC(=O)C(NC(=O)c1cccc(-c2ccccc2)n1)C(C)O)B(O)O (centres undefined)
assignedLabel: low value
--
compound: CN(C)CC=CC(=O)Nc1cc2c(Nc3ccc(F)c(Cl)c3)ncnc2cc1OC1CCOC1.O=C(O)C=CC(=O)O.O=C(O)C=CC(=O)O (centres undefined) [Afatinib dimaleate]
assignedLabel: low value

Returns: class label. Input: Cl.O.O=C1Cc2cc(CCN3CCN(c4nsc5ccccc45)CC3)c(Cl)cc2N1 [Ziprasidone hydrochloride monohydrate]
high value

Form field 'band' for COc1ccc(C[C@H](N)C(=O)N[C@@H]2[C@H](O)[C@H](n3cnc4c(N(C)C)ncnc43)O[C@@H]2CO)cc1.Cl.Cl [Puromycin dihydrochloride]
medium value
